Just for reference, patent US11014911B2 is where these values come from.

Entries and their Ki
# Tested on: GSK3β (H350L) (Homo sapiens (Human), UniProt P49841)
# Sequence (P49841 whole entry, stated change not applied): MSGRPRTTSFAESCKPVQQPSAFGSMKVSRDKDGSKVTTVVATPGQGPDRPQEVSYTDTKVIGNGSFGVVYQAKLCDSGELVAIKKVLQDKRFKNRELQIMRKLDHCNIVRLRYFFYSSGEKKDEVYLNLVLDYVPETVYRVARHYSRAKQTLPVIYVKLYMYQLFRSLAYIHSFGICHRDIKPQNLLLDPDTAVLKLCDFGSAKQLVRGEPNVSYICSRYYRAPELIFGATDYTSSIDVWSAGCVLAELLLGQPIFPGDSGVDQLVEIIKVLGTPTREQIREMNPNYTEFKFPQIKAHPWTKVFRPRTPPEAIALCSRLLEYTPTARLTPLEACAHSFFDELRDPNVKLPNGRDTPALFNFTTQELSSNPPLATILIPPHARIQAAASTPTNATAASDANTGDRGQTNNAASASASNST
# Assay summary: biochemical
# Conditions: GSK3β Ki (nM)
Numbers only; they are read as nM.

# count of solved cases: 4
| Molecule | Ki / nM |
| --- | --- |
| CC1(NC(=O)O[C@@H]2CC[C@H](c3cc(NC(=O)Cc4cc(F)cc(F)c4)n[nH]3)C2)CCOC1 (single isomer, unassigned) [Example 121] | 19.4 |
| Cc1ncc(CC(=O)Nc2cc([C@H]3CC[C@@H](OC(=O)NC(C)C(C)(F)F)C3)[nH]n2)s1 (single isomer, unassigned) | 38 |
| COc1cc(CC(=O)Nc2cc([C@H]3CC[C@@H](OC(=O)N4CCC4C)C3)[nH]n2)ccn1 (single isomer, unassigned) | 9.15 |
| CCC(NC(=O)O[C@@H]1CC[C@H](c2cc(NC(=O)Cc3ccnc(OC)c3)n[nH]2)C1)C(F)(F)F (single isomer, unassigned) [Example 406] | 73.3 |

Qu. Would you kindly share the measured Ki for CC(CC(F)(F)F)NC(=O)O[C@@H]1CC[C@H](c2cc(NC(=O)Cc3cnn(C(C)C)c3)n[nH]2)C1 (single isomer, unassigned) ?
Ans. 17.9

----------
# Tested on: GSK3β (H350L) (Homo sapiens (Human))
# Assay summary: biochemical
# Conditions: GSK3β Ki (nM)
Overview of recorded Ki for various compounds
Please respond with the number in nM and leave the unit unwritten.

Consider the worked cases shown below.
| Compound | Output unit | Test result |
| --- | --- | --- |
| O=C(Cc1cc(F)cc(F)c1)Nc1cc([C@@H]2CC[C@H](OC(=O)NCC3CCCOC3)C2)[nH]n1 (single isomer, unassigned) [Example 515] | nM | 11.3 |
| COc1cnc(CC(=O)Nc2cc([C@H]3CC[C@@H](OC(=O)NC(C)CC(F)(F)F)C3)[nH]n2)cn1 (single isomer, unassigned) [Example 68] | nM | 16.3 |
| Cc1cnc(CC(=O)Nc2cc([C@H]3CC[C@@H](OC(=O)NC(C)CC(F)(F)F)C3)[nH]n2)cn1 (single isomer, unassigned) [Example 74] | nM | 13.2 |
| CCC(NC(=O)O[C@@H]1CC[C@H](c2cc(NC(=O)Cc3ccnc(OC)c3)n[nH]2)C1)C(F)(F)F (single isomer, unassigned) [Example 405] | nM | 97.9 |
| COc1ccc(CC(=O)Nc2cc([C@H]3CC[C@@H](OC(=O)NC4(C)CCOC4)C3)[nH]n2)cc1 (single isomer, unassigned) [Example 484] | nM | 30.3 |

Qu. Find Ki (GSK3β (H350L) (Homo sapiens (Human))) for the entry COc1cc(CC(=O)Nc2cc([C@H]3CC[C@@H](OC(=O)N4C[C@@H](C#N)[C@@H]4C)C3)[nH]n2)ccn1 (single isomer, unassigned) [Example 155]
Ans. 1.63

Qu. GET /values?readout=Ki&system=GSK3β (H350L) (Homo sapiens (Human))&item= COc1cc(CC(=O)Nc2cc([C@H]3CC[C@@H](OC(=O)NC(C)CC(F)(F)F)C3)[nH]n2)ccn1 (single isomer, unassigned) [Example 77]
Ans. 19.7

Qu. GSK3β (H350L) (Homo sapiens (Human)) / Ki / Cc1ccc(CC(=O)Nc2cc([C@H]3CC[C@@H](OC(=O)NC(C)C(C)(F)F)C3)[nH]n2)cn1 (single isomer, unassigned) [Example 388] : value?
Ans. 36.9

Qu. Short answer please: Ki, GSK3β (H350L) (Homo sapiens (Human)), entry CCC1(C)CCN1C(=O)O[C@@H]1CC[C@H](c2cc(NC(=O)Cc3cc(C)no3)n[nH]2)C1 (single isomer, unassigned) [Example 604]
Ans. 5

Qu. Look up Ki with GSK3β (H350L) (Homo sapiens (Human)) for this compound: COc1ccc(CC(=O)Nc2cc([C@H]3CC[C@@H](OC(=O)NC4(C)CCOC4)C3)[nH]n2)cn1 (single isomer, unassigned) [Example 123]
Ans. 8.87

Qu. Form field - read-out: Ki; system: GSK3β (H350L) (Homo sapiens (Human)); submitted item: CC(CC(F)(F)F)NC(=O)O[C@@H]1CC[C@H](c2cc(NC(=O)Cc3ccon3)n[nH]2)C1 (single isomer, unassigned) [Example 64]
Ans. 18.7

Qu. Item: Cc1ncc(CC(=O)Nc2cc([C@H]3CC[C@@H](OC(=O)NC4(C)CCOC4)C3)[nH]n2)s1 (single isomer, unassigned) [Example 482] Test system: GSK3β (H350L) (Homo sapiens (Human)) Read-out: Ki Value: ?
Ans. 36.2
